target: hNET (Homo sapiens); assay: fluorescence-based norepinephrine reuptake inhibition assay (Tsuruda et al. 2010; data indicated by an asterisk); format: cell-based; design: expressed in transfected cells; host or cells: HEK-293; settings: norepinephrine reuptake inhibition, fluorescence-based assay (values with asterisk); read-out: NET pIC50 (converted)
Sequence (P23975 whole entry): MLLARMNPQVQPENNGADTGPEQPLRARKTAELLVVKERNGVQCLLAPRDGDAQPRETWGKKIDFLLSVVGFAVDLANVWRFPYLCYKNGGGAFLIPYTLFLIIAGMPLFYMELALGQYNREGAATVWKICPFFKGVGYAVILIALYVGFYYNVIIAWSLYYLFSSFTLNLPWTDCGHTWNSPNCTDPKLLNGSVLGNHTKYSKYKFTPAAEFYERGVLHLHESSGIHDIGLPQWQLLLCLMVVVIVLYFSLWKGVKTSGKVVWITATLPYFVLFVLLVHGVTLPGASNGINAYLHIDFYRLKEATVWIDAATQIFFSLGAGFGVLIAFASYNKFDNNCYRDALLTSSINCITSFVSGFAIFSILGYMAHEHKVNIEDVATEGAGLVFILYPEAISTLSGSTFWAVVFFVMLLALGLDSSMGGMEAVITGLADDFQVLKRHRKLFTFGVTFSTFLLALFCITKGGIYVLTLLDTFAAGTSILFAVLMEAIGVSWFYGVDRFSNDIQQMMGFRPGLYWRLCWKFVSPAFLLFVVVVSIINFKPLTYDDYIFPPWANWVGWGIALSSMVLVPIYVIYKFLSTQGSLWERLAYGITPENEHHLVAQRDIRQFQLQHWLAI
Measured IC50, listed per entry.

# example entries with known answers
CC[C@@H](Oc1ccc(Cl)c(C)c1)[C@H]1CCNC1 [Example 2-14] | ≤ 100 nM
CC[C@@H](Oc1cccc(Cl)c1C(F)(F)F)[C@H]1CCNC1 [Example 2-74] | ≤ 100 nM
Clc1ccc(O[C@@H](C2CC2)[C@H]2CCNC2)cc1Cl [Example 16-87] | ≤ 10 nM
CC[C@@H](Oc1c(F)ccc(OC)c1Cl)[C@H]1CCNC1 [Example 2-45] | ≤ 10 nM
COc1cc(Cl)cc(O[C@@H](C2CC2)[C@H]2CCNC2)c1 [Example 16-100] | ≤ 10 nM

Moving on to the next compound.
Req: Looking for the measured IC50 of CCC[C@@H](Oc1cc(F)cc(Cl)c1)[C@H]1CCNC1 [Example 4-10] , can you help?
Resp: ≤ 10 nM
